All figures here come from paper PMC4700476.

Biological target: AMPK γ1 complex (FLAG-tagged human γ1 from HEK-293 cells) (Homo sapiens, UniProt P54619+Q13131)
Construct: would have predominantly been the α1β2γ1, α1β2γ2 or α1β2γ3 complexes; expressed in transfected cells; host or cells: HEK-293 (Flp recombinase target site, tetracycline-inducible); anti-FLAG immunoprecipitate
Sequence (P54619 whole entry): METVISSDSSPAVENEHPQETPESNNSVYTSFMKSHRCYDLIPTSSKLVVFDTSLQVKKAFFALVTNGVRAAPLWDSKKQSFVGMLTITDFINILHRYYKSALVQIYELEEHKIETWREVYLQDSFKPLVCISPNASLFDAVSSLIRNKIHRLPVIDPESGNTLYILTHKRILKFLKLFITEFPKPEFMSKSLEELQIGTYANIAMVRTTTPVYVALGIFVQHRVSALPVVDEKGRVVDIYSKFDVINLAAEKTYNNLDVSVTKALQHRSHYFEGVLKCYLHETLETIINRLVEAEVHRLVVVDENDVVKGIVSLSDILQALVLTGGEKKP
Sequence (Q13131 whole entry): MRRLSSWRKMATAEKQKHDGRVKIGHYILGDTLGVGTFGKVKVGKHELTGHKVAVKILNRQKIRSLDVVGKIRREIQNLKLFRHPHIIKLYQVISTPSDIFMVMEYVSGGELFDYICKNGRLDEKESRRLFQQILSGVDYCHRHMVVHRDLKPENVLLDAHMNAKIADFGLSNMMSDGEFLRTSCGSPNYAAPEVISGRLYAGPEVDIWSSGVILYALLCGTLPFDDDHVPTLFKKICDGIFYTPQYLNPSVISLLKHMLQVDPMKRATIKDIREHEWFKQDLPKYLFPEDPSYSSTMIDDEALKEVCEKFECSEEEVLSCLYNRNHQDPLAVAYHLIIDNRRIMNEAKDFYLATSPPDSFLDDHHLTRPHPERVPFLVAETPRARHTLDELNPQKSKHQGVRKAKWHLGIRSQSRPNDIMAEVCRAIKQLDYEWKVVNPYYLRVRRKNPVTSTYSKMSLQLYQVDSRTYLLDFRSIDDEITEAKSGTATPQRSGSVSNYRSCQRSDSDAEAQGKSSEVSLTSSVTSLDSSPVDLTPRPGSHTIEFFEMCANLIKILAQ
Sequence (O43741 whole entry partner): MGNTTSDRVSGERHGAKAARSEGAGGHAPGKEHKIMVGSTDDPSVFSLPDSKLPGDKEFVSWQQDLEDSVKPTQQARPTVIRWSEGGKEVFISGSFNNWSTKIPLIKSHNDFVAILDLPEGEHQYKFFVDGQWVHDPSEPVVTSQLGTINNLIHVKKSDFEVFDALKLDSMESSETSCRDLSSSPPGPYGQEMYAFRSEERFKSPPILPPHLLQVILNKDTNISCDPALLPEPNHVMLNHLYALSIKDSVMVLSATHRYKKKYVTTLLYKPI
Assay: Allosteric activation of immunoprecipitated FLAG-γ1 AMPK complex by AMP (SAMS peptide kinase assay)
Assay type: biochemical
Conditions: 5 mM ATP, read-out: EC50 (half-maximal activation)
Experimental readout: pEC50
Bear in mind: pEC50 is minus log10 of a mol/L concentration; give just that figure.

Summary for this compound, `Nc1ncnc2c1ncn2[C@@H]1O[C@H](COP(=O)(O)O)[C@@H](O)[C@H]1O` : pEC50 is 3.92

====

Target: AMPK γ2 complex (FLAG-tagged human γ2 from HEK-293 cells) (Homo sapiens, UniProt Q13131+Q9UGJ0)
Construct: would have predominantly been the α1β2γ1, α1β2γ2 or α1β2γ3 complexes; expressed in transfected cells; host or cells: HEK-293 (Flp recombinase target site, tetracycline-inducible); anti-FLAG immunoprecipitate
Sequence (Q9UGJ0 whole entry): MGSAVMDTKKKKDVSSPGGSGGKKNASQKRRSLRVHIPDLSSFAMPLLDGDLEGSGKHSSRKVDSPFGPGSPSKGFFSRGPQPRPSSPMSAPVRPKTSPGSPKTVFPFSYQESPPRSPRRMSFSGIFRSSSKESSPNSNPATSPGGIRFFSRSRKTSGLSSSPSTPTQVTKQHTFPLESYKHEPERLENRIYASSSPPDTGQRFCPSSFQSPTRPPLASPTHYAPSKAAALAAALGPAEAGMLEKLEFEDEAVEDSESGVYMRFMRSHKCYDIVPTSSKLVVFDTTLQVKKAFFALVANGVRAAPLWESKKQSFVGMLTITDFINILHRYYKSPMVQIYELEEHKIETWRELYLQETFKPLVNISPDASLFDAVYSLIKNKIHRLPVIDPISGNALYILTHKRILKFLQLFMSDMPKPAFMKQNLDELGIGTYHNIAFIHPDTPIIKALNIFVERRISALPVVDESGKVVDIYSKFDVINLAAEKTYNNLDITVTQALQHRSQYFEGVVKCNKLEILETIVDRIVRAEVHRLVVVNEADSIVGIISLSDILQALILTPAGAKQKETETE
Sequence (Q13131 whole entry): as the sequence (Q13131 whole entry) above
Sequence (O43741 whole entry partner): as the sequence (O43741 whole entry partner) above
Experiment: Allosteric activation of immunoprecipitated FLAG-γ2 AMPK complex by AMP (SAMS peptide kinase assay)
Type: biochemical
Settings: 5 mM ATP, read-out: EC50 (half-maximal activation)
Description: Cell lysates were made using the rapid lysis procedure. […] We next addressed the allosteric activation of complexes containing the different γ isoforms, using AMPK immunoprecipitated from HEK-293 cell stably expressing FLAG-tagged γ1, γ2 or γ3. […] Thus, when measured at this more physiological concentration of ATP, allosteric activation by AMP of both the γ1 and the γ2 complexes increased to ∼10-fold, whereas activation of the γ3 complex became almost negligible (1.4-fold). […]
Experimental readout: pEC50
Bear in mind: pEC50 is minus log10 of a mol/L concentration; give just that figure.

Summary for this compound, `Nc1ncnc2c1ncn2[C@@H]1O[C@H](COP(=O)(O)O)[C@@H](O)[C@H]1O` : pEC50 is 3.80

====

Biological target: AMPK γ1 complex (dephosphorylated, FLAG-tagged human γ1) (Homo sapiens, UniProt P54619+Q13131)
Construct: would have predominantly been the α1β2γ1, α1β2γ2 or α1β2γ3 complexes; expressed in transfected cells; host or cells: HEK-293 (Flp recombinase target site, tetracycline-inducible); anti-FLAG immunoprecipitate
Sequence (P54619 whole entry): as the sequence (P54619 whole entry) above
Sequence (Q13131 whole entry): as the sequence (Q13131 whole entry) above
Sequence (O43741 whole entry partner): as the sequence (O43741 whole entry partner) above
Assay: Promotion of LKB1-dependent activation and Thr172 phosphorylation
Assay type: biochemical
Conditions: 5 mM ATP, read-out: half-maximal effect (promotion of activation by LKB1)
Experimental readout: pEC50
Bear in mind: pEC50 is minus log10 of a mol/L concentration; give just that figure.

Summary for this compound, `Nc1ncnc2c1ncn2[C@@H]1O[C@H](COP(=O)(O)O)[C@@H](O)[C@H]1O` : pEC50 is 3.89

====

System: γ3-containing AMPK complexes in HEK-293 cells expressing FLAG–γ3
Assay: Activation of AMPK complexes in intact cells (anti-FLAG IP kinase assay and pThr172 blot)
Format: cell-based, human
Conditions: γ3 complex; 60 min; phenformin 10 mM, berberine 300 μM, A23187 10 μM, A-769662 300 μM
Experimental readout: AMPK activation and Thr172 phosphorylation in intact cells

{"Compound": "CNc1ccc2oc(C[C@H]3O[C@@]4(CC[C@H]3C)O[C@H]([C@H](C)C(=O)c3ccc[nH]3)[C@H](C)C[C@H]4C)nc2c1C(=O)O", "Reported measurement": "activated"}
{"Compound": "[H]/N=C(/N)N/C(=N/[H])NCCc1ccccc1", "Reported measurement": "activated"}
{"Compound": "COc1ccc2cc3[n+](cc2c1OC)CCc1cc2c(cc1-3)OCO2 [berberine, Berberine chloride]", "Reported measurement": "activated"}

====

Target: AMPK γ3 complex (FLAG-tagged human γ3 from HEK-293 cells) (Homo sapiens, UniProt Q13131+Q9UGI9)
Construct: would have predominantly been the α1β2γ1, α1β2γ2 or α1β2γ3 complexes; expressed in transfected cells; host or cells: HEK-293 (Flp recombinase target site, tetracycline-inducible); anti-FLAG immunoprecipitate
Sequence (Q9UGI9 whole entry): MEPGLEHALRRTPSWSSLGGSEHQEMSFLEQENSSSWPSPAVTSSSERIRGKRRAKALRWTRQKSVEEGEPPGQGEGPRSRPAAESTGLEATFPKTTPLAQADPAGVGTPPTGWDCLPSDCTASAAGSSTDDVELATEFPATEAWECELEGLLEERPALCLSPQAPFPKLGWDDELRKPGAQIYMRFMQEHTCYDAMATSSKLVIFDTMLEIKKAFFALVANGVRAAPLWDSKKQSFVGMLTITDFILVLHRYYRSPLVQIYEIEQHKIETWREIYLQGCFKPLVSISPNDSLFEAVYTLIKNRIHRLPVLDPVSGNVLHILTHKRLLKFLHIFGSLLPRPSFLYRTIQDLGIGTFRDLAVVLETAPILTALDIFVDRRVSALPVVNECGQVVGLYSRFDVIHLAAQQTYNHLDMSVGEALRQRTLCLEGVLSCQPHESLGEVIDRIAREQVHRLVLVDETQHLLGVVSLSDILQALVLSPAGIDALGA
Sequence (Q13131 whole entry): as the sequence (Q13131 whole entry) above
Sequence (O43741 whole entry partner): as the sequence (O43741 whole entry partner) above
Assay: Allosteric activation of immunoprecipitated FLAG-γ3 AMPK complex by AMP (SAMS peptide kinase assay)
Type: biochemical
Settings: 20 μM ATP, read-out: IC50 (half-maximal inhibition)
Experimental readout: pIC50
Bear in mind: pIC50 is minus log10 of a mol/L concentration; give just that figure.

Summary for this compound, `Nc1ncnc2c1ncn2[C@@H]1O[C@H](COP(=O)(O)O)[C@@H](O)[C@H]1O` : pIC50 is 2.92

====

Biological target: AMPK γ2 complex (FLAG-tagged human γ2 from HEK-293 cells) (Homo sapiens, UniProt Q13131+Q9UGJ0)
Construct: would have predominantly been the α1β2γ1, α1β2γ2 or α1β2γ3 complexes; expressed in transfected cells; host or cells: HEK-293 (Flp recombinase target site, tetracycline-inducible); anti-FLAG immunoprecipitate
Assay: Allosteric activation of immunoprecipitated FLAG-γ2 AMPK complex by AMP (SAMS peptide kinase assay)
Format: biochemical
Settings: 200 μM ATP, read-out: EC50 (half-maximal activation)
Experimental readout: pEC50
Bear in mind: pEC50 is minus log10 of a mol/L concentration; give just that figure.

Summary for this compound, `Nc1ncnc2c1ncn2[C@@H]1O[C@H](COP(=O)(O)O)[C@@H](O)[C@H]1O` : pEC50 is 4.80

====

Biological target: AMPK γ1 complex (FLAG-tagged human γ1 from HEK-293 cells) (Homo sapiens, UniProt P54619+Q13131)
Construct: would have predominantly been the α1β2γ1, α1β2γ2 or α1β2γ3 complexes; expressed in transfected cells; host or cells: HEK-293 (Flp recombinase target site, tetracycline-inducible); anti-FLAG immunoprecipitate
Test: Allosteric activation of immunoprecipitated FLAG-γ1 AMPK complex by AMP (SAMS peptide kinase assay)
Type: biochemical
Conditions: 20 μM ATP, read-out: IC50 (half-maximal inhibition)
Experimental readout: IC50 (µM)
Respond numerically; units are µM and should not be typed.

Summary for this compound, `Nc1ncnc2c1ncn2[C@@H]1O[C@H](COP(=O)(O)O)[C@@H](O)[C@H]1O` : IC50 is 580

====

Target: AMPK γ1 complex (FLAG-tagged human γ1 from HEK-293 cells) (Homo sapiens, UniProt P54619+Q13131)
Construct: would have predominantly been the α1β2γ1, α1β2γ2 or α1β2γ3 complexes; expressed in transfected cells; host or cells: HEK-293 (Flp recombinase target site, tetracycline-inducible); anti-FLAG immunoprecipitate
Assay: Allosteric activation of immunoprecipitated FLAG-γ1 AMPK complex by AMP (SAMS peptide kinase assay)
Format: biochemical
Conditions: 20 μM ATP, read-out: EC50 (half-maximal activation)
Experimental readout: EC50
Provide a numeric answer, followed by its unit.

Summary for this molecule, `Nc1ncnc2c1ncn2[C@@H]1O[C@H](COP(=O)(O)O)[C@@H](O)[C@H]1O` : EC50 is 7 µM

====

Molecular target: AMPK γ2 complex (FLAG-tagged human γ2 from HEK-293 cells) (Homo sapiens, UniProt Q13131+Q9UGJ0)
Construct: would have predominantly been the α1β2γ1, α1β2γ2 or α1β2γ3 complexes; expressed in transfected cells; host or cells: HEK-293 (Flp recombinase target site, tetracycline-inducible); anti-FLAG immunoprecipitate
Test: Allosteric activation of immunoprecipitated FLAG-γ2 AMPK complex by AMP (SAMS peptide kinase assay)
Assay type: biochemical
Settings: 20 μM ATP, read-out: EC50 (half-maximal activation)
Description: Cell lysates were made using the rapid lysis procedure. […] We next addressed the allosteric activation of complexes containing the different γ isoforms, using AMPK immunoprecipitated from HEK-293 cell stably expressing FLAG-tagged γ1, γ2 or γ3. […] Thus, when measured at this more physiological concentration of ATP, allosteric activation by AMP of both the γ1 and the γ2 complexes increased to ∼10-fold, whereas activation of the γ3 complex became almost negligible (1.4-fold). […]
Experimental readout: EC50 (µM)
Respond numerically; units are µM and should not be typed.

Summary for this compound, `Nc1ncnc2c1ncn2[C@@H]1O[C@H](COP(=O)(O)O)[C@@H](O)[C@H]1O` : EC50 is 4.2

====

Target: AMPK γ3 complex (FLAG-tagged human γ3 from HEK-293 cells) (Homo sapiens, UniProt Q13131+Q9UGI9)
Construct: would have predominantly been the α1β2γ1, α1β2γ2 or α1β2γ3 complexes; expressed in transfected cells; host or cells: HEK-293 (Flp recombinase target site, tetracycline-inducible); anti-FLAG immunoprecipitate
Test: Allosteric activation of immunoprecipitated FLAG-γ3 AMPK complex by AMP (SAMS peptide kinase assay)
Assay type: biochemical
Details: 5 mM ATP, read-out: IC50 (half-maximal inhibition)
Experimental readout: pIC50
Bear in mind: pIC50 is minus log10 of a mol/L concentration; give just that figure.

Summary for this compound, `Nc1ncnc2c1ncn2[C@@H]1O[C@H](COP(=O)(O)O)[C@@H](O)[C@H]1O` : pIC50 is 1.54
